biological target: integrin α5β1 (UniProt P08648 42-1049; P05556 21-798); assay: cell-based or functional assay
Sequence (P08648 42-1049, chain 1 of 2): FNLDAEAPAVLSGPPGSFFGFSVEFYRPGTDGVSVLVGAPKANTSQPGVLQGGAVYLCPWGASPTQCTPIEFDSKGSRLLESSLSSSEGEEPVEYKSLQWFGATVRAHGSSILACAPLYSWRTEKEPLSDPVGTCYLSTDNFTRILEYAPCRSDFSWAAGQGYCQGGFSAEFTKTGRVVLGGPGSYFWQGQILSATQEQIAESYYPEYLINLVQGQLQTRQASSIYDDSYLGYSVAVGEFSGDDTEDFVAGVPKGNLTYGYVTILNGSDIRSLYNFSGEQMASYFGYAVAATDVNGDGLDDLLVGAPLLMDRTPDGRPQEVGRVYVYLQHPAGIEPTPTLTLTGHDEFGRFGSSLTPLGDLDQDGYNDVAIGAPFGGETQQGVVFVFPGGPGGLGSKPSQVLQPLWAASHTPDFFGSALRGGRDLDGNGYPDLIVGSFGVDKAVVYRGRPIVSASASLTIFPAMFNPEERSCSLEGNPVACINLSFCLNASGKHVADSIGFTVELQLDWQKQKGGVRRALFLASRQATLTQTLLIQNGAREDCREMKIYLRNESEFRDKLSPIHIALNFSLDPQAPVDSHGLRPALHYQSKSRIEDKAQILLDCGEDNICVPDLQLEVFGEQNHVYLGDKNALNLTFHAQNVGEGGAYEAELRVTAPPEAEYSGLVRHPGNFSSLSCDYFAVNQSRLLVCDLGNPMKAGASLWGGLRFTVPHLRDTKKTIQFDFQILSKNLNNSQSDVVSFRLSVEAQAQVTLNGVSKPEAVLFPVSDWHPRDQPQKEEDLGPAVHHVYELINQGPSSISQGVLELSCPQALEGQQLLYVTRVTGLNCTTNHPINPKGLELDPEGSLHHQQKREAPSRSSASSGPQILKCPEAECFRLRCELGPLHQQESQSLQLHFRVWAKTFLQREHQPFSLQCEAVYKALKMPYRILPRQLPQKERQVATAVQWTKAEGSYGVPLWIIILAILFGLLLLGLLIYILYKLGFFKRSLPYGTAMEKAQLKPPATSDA
Sequence (P05556 21-798, chain 2 of 2): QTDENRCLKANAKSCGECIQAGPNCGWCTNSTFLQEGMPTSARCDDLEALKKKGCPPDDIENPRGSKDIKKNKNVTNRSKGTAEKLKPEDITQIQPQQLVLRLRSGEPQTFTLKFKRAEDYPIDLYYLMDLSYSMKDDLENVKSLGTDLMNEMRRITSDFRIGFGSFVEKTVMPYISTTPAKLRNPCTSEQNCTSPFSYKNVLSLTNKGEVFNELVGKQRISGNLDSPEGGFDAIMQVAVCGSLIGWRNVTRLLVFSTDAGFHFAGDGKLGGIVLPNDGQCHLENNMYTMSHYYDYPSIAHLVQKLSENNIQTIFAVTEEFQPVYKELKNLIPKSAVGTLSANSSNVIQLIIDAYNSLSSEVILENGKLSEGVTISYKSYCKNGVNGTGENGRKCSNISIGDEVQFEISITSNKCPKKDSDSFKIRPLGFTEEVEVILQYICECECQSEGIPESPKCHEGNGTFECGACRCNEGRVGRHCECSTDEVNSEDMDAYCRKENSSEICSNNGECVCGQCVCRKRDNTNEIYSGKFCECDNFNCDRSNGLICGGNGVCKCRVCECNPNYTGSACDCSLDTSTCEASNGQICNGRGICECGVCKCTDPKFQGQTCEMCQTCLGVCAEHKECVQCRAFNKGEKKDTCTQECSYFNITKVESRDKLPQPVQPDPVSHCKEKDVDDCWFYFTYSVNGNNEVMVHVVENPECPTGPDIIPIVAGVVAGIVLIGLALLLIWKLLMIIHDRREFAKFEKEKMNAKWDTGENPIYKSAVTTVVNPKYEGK
Reported Property: percentage of inhibition, cell adhesion assay (%)
Answer format: numeric, % implied, no suffix.

Example binders with recorded percentage of inhibition, cell adhesion assay:
FNIII 10 variant (SEQ ID NO: 48, VTPRGDMPDSSK) (designed binder, also called FNIII 10 (PRGDMPD) protein; FNIII 10 PRGDMPD variant) HHHHHHVSDVPRDLEVVAATPTSLLISWDAPAVTVRYYRITYGETGGNSPVQEFTVPGSKSTATISGLKPGVDYTITVYAVTPRGDMPDSSKPISINYRT :: 31.7
Control FNIII 10 mutant (SEQ ID NO: 50, VTPRGDWNEGSK) (designed binder, exact N-terminus uncertain; also called FNIII 10 variant) HHHHHHVSDVPRDLEVVAATPTSLLISWDAPAVTVRYYRITYGETGGNSPVQEFTVPGSKSTATISGLKPGVDYTITVYAVTPRGDWNEGSKPISINYRT :: 32.5

Now take the following binder into account.
Req: Fill in the blank: the reported percentage of inhibition, cell adhesion assay of FNIII 10 C-X7-C (SEQ ID NO: 6, VCPRGDMPDCSK) (designed binder) HHHHHHVSDVPRDLEVVAATPTSLLISWDAPAVTVRYYRITYGETGGNSPVQEFTVPGSKSTATISGLKPGVDYTITVYAVCPRGDMPDCSKPISINYRT is ____.
Resp: 42
